target: SIRT1 (Homo sapiens, UniProt Q96EB6); experiment: Trp mass spectrometry assay (SIRT1 activation); type: biochemical; conditions: concentration of test compound that results in 150% activation of SIRT1; Trp peptide substrate
Sequence (Q96EB6 whole entry): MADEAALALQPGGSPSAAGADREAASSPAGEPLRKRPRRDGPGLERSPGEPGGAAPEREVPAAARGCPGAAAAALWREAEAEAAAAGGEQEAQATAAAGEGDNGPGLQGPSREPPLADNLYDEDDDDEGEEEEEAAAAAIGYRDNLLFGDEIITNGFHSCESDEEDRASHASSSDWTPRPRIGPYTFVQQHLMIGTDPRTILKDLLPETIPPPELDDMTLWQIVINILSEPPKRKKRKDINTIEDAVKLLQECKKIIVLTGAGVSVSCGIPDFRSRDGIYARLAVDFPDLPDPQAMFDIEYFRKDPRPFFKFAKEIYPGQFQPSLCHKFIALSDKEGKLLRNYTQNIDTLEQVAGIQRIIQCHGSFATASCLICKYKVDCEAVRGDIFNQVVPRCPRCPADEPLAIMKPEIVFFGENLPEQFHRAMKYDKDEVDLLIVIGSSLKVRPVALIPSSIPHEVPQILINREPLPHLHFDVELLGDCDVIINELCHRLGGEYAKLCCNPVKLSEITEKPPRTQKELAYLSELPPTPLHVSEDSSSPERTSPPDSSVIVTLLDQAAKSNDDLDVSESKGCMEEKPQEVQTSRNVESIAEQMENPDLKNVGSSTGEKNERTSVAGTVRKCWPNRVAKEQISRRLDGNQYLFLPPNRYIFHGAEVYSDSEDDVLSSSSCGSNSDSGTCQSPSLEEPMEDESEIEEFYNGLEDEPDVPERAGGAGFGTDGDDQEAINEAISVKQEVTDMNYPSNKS
Parameter: Tryp AVG EC1.5 (μM)

Past entries and their recorded results:
Molecule	Tested Target	Tryp AVG EC1.5 (μM)
O=C(Nc1ccncn1)N1c2nc(N3CCCC(C(F)(F)F)C3)ccc2N2CCC[C@H]1C2 (stereo partly drawn)	SIRT1 (Homo sapiens, UniProt Q96EB6)	B (EC1.5 1-25 μM)
O=C(Nc1cnccn1)N1c2nc(-c3cncc(Cl)c3)ccc2N2CC[C@H]1C2	SIRT1 (Homo sapiens, UniProt Q96EB6)	A (EC1.5<1 μM)
Cc1ccncc1-c1ccc2c(n1)N(C(=O)Nc1ccccn1)[C@H]1CCCN2C1	SIRT1 (Homo sapiens, UniProt Q96EB6)	C (EC1.5>25 μM)
Cc1cc(NC(=O)N2c3nc(N4CC[C@H](N(C)C)C4)ccc3N3CC[C@H]2C3)cc(C)n1	SIRT1 (Homo sapiens, UniProt Q96EB6)	B (EC1.5 1-25 μM)
O=C(Nc1ccc(F)cn1)N1c2nc(-c3cccc(CC(O)CO)c3)ccc2N2CC[C@H]1C2 (stereo partly drawn)	SIRT1 (Homo sapiens, UniProt Q96EB6)	A (EC1.5<1 μM)

Requested read-out: Tryp AVG EC1.5 (μM). Entry: CC(C)(C)OC(=O)NCCn1cc(-c2cccc(NC(=O)N3c4nc(-c5cccc(C(F)(F)F)c5)ccc4N4CCC[C@H]3C4)c2)nn1
A (EC1.5<1 μM)

Fill blank: measured Tryp AVG EC1.5 (μM) of the molecule O=C(Nc1cccc(-c2cnco2)c1)N1c2nc(-c3cccc(Cl)c3)ccc2N2CC[C@H]1C2 is ____.
A (EC1.5<1 μM)

Need Tryp AVG EC1.5 (μM), item Cn1nccc1-c1cccc(NC(=O)N2c3nc(-c4cccc(C(F)(F)F)c4)ccc3N3CC[C@H]2C3)n1
A (EC1.5<1 μM)

Give its Tryp AVG EC1.5 (μM) value. Item: O=C(Nc1cccnc1)N1c2nc(-c3cncc(Cl)c3)ccc2N2CCC1CC2
B (EC1.5 1-25 μM)

Sample Cc1nn(C)cc1-c1ccc2c(n1)N(C(=O)Nc1cccnc1)[C@H]1CCN2C1 — what was its Tryp AVG EC1.5 (μM)?
B (EC1.5 1-25 μM)

Any idea what Tryp AVG EC1.5 (μM) was measured for O=C(CCCCCNC(=O)c1ccc(-c2c3ccc(=O)cc-3oc3cc(O)ccc23)c(C(=O)O)c1)NCc1ccc(NC(=O)N2c3nc(-c4cccc(C(F)(F)F)c4)ccc3N3CC[C@H]2C3)cc1 ?
C (EC1.5>25 μM)

May I ask what Tryp AVG EC1.5 (μM) has been recorded for Cc1nc(NC(=O)N2c3nc(-c4cccnc4)ccc3N3CCC[C@H]2C3)sc1C ?
B (EC1.5 1-25 μM)

Field request: Tryp AVG EC1.5 (μM) | item: O=C(Nc1cccc(-c2cnco2)c1)N1c2nc(-c3cncc(F)c3)ccc2N2CCC1CC2
A (EC1.5<1 μM)

Consider the molecule O=C(Nc1cncc(F)c1)N1c2nc(-c3cccc(N4CCC(C(F)(F)F)C4)c3)ccc2N2CC[C@H]1C2 (stereo partly drawn) and give its measured Tryp AVG EC1.5 (μM).
B (EC1.5 1-25 μM)

Return reported Tryp AVG EC1.5 (μM); argument: Cc1nc(NC(=O)N2c3nc(-c4cncc(F)c4)ccc3N3CCC2CC3)sc1C
B (EC1.5 1-25 μM)
